assay: Plasma protein binding assay; format: in vitro ADME; settings: human
readout-kind: fraction unbound at 4 h, 1000 ng/g
Form: value (number only, do not type unit).

The reported value for Cc1nc2cc(-c3cc(F)cc(C#N)c3)ccc2s1 in terms of fraction unbound at 4 h, 1000 ng/g is 0.006

---

target: rat mGlu5 (Rattus norvegicus, UniProt P31424); test: Calcium mobilization assay; format: cell-based; conditions: read-out: mGlu5 IC50; calcium mobilization, EC80 glutamate, HEK293A cells expressing rat mGlu5; average of n ≥ 3
Sequence (P31424 21-1203): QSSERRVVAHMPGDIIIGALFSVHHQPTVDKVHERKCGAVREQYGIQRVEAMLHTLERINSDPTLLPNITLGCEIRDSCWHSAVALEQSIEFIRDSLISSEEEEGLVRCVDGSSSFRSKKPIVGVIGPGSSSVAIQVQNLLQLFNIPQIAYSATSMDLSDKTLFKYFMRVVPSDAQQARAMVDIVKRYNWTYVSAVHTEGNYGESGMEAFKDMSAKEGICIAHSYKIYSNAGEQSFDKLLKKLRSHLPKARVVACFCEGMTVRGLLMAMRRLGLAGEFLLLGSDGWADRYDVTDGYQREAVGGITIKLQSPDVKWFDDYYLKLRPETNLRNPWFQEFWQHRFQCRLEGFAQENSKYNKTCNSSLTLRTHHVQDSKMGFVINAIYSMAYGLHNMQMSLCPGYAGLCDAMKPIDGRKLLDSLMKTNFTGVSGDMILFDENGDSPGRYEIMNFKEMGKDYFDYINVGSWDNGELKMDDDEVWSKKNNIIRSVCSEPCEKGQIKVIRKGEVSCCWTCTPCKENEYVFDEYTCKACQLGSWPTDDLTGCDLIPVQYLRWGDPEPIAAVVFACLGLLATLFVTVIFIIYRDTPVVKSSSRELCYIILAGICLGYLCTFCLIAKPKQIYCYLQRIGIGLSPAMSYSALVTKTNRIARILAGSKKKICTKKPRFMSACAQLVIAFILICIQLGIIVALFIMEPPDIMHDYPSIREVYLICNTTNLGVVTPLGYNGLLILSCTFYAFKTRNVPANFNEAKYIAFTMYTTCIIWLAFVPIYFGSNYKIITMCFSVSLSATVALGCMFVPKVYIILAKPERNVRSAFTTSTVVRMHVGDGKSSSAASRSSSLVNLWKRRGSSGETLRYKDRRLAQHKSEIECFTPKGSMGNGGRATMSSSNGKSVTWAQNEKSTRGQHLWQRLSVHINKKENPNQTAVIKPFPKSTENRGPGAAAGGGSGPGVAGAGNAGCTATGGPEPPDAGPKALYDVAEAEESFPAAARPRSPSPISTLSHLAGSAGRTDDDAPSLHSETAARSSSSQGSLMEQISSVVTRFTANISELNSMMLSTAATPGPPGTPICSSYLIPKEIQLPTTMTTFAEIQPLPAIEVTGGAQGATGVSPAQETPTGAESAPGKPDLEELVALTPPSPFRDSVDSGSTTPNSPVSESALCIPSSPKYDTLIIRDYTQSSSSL
readout-kind: pIC50
Keep in mind that pIC50 stands for -log10 of concentration in molar terms.

Item: Cc1ccc2ccc(-c3cc(F)cc(C#N)c3)cc2n1 [Compound 3, reference compound] | pIC50: 8.02
